Hello, the source for this data is PubChem BioAssay AID1347076, in case you need it.

Test: qHTS assay for MDR1-selective chemotherapeutics: Primary screen using the drug-selected MDR subline cells KB-V1; note: nearly all actives have a fitted effect of over 60% in size; note: potency is the fitted concentration of half-maximal effect
Details: KB-V1 MDR cells viability, CellTiter-Glo, 72 h; series mostly up to 46.1 µM
Out of some 400,000 compounds screened, about 13,000 (3.2%) were called active. Inconclusive results (about 18%) are left out. The entries come from a sample that favours actives as a whole.
measurement type: Potency

Worked examples, 4 compounds total:
Cc1ccc(-c2noc(CCC(=O)Nc3ccccc3N3CCN(C)CC3)n2)cc1 = 20.6 µM (active)
O=C(CNS(=O)(=O)c1cccs1)N1CCN(c2ccccc2Cl)CC1 = inactive
NC(=O)Cc1nc2scc(-c3ccc(Cl)cc3)c2c(=O)[nH]1 = inactive
O=C(NCc1cccnc1)c1cc(C2CCCCN2C(=O)CCc2ccccc2)on1 (stereo unspecified) = inactive

Reported Potency, compound `O=c1[nH]c(CN2CCOCC2)nc2cc(Cl)ccc12` : ____
inactive

Item under review: `O=C(COC(=O)c1cccc(Cl)c1Cl)NC1CCCCCC1` . Reported Potency?
inactive

----------
Assay: qHTS assay for MDR1-selective chemotherapeutics: Primary screen using the drug-selected MDR subline cells KB-V1; note: nearly all actives have a fitted effect of over 60% in size
Details: KB-V1 MDR cells viability, CellTiter-Glo, 72 h; series mostly up to 46.1 µM
Among all 400,000 compounds or so, about 13,000 (3.2%) were called active. Not shown: some 18% with an inconclusive outcome. Calls come from the whole dose curve; as a rule, active = well fitted cell-killing curve with a large enough effect; inconclusive = small, poorly fitted or top-dose-only effect, or effect the other way; inactive = flat fitted curve, though single readings scatter. The sample as a whole holds a higher share of actives than the screen did.
Can you answer with just one of these options? t = active, f = inactive

Worked examples, 2 compounds total:
CC(=O)Nc1ccc(NC(=O)c2cc3sccc3n2Cc2ccc(F)cc2)cc1 = f
CC(Sc1oc(-c2ccco2)nc1S(=O)(=O)c1ccc(Br)cc1)c1ccccc1 (stereo not drawn) = f

Now consider a different compound.
Outcome logged for CC1CC(=O)Nc2ccccc2N1C(=O)COc1ccc2cc(Br)ccc2c1 (stereo not drawn) in this assay:
t

----------
Test: qHTS assay for MDR1-selective chemotherapeutics: Primary screen using the drug-selected MDR subline cells KB-V1; note: nearly all actives have a fitted effect of over 60% in size
Conditions: KB-V1 MDR cells viability, CellTiter-Glo, 72 h; series mostly up to 46.1 µM
Excerpt: A prime difficulty in effectively treating cancer is the development of cellular resistance to multiple structurally unrelated anticancer drugs, a phenomenon known as multidrug resistance (MDR). […] Numerous strategies to overcome P-gp-mediated MDR have been explored, including the design of drugs that evade recognition and efflux, and development of inhibitors to block efflux and restore drug accumulation. […]
Among all 400,000 compounds or so, about 13,000 (3.2%) were called active. Not shown: some 18% with an inconclusive outcome. Calls come from the whole dose curve; as a rule, active = well fitted cell-killing curve with a large enough effect; inconclusive = small, poorly fitted or top-dose-only effect, or effect the other way; inactive = flat fitted curve, though single readings scatter. Shown is part of a subset that was picked to be rich in actives.
Write down one outcome, taken from active, inactive

CCOc1ccccc1N1CCN(C(=O)c2ccc3[nH]c(C)c(C)c3c2)CC1 = active
COc1ccc2c(c1)CCc1c(C(=O)Nc3c(C)n(C)n(-c4ccccc4)c3=O)noc1-2 = active

Here is another compound to look at.
Which outcome did this test record for the compound `Cc1nn(CC(=O)N/N=C/c2ccc(F)cc2)c(C)c1[N+](=O)[O-]` ?
inactive

----------
Assay: qHTS assay for MDR1-selective chemotherapeutics: Primary screen using the drug-selected MDR subline cells KB-V1; note: nearly all actives have a fitted effect of over 60% in size; note: potency is the fitted concentration of half-maximal effect
Details: KB-V1 MDR cells viability, CellTiter-Glo, 72 h; series mostly up to 46.1 µM
Out of some 400,000 compounds screened, about 13,000 (3.2%) were called active. Roughly 18% stayed inconclusive and do not appear here. Shown is part of a subset that was picked to be rich in actives.
measurement type: Potency

// solved cases for Potency follow
O=C(NCC1COc2ccccc2O1)C1(c2ccccc2)CCCC1 (centres undefined) = inactive
Nc1nc2c(ncn2[C@@H]2O[C@H](CNCc3ccc(OCCCN4CCOCC4)cc3)[C@@H](O)[C@H]2O)c(=O)[nH]1 = inactive
CCCCCn1c(=O)[nH]c2cc(C(=O)Nc3ccc(F)cc3)ccc2c1=O = inactive
COc1ccc(NC(=O)c2ccco2)cc1NC(=O)COc1ccc(C)c(C)c1 = inactive
COC(=O)c1ccc(C(=O)OC)c(NC(=S)N2CCCCC2)c1 = inactive

From here, focus on the item given below.
Consider the compound shown here: `O=C(CN(c1ccccc1)S(=O)(=O)c1ccc(Cl)cc1)Nc1ccccc1C(=O)N1CCCC1` What is its recorded Potency?
5.8 µM (active)
